All values here come from ChEMBL document CHEMBL1150439.

# target: Peptidyl-prolyl cis-trans isomerase FKBP1A (Homo sapiens, UniProt P62942)
# Sequence (P62942 whole entry): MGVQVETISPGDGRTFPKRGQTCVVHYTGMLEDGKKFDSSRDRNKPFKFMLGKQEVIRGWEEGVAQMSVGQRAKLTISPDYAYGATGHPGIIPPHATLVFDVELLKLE
recorded_endpoint: log10 Kd (log10 of the value in µM)
Note the log scale: values are log10 of Kd expressed in µM.

compound | log10 Kd
C=CCC1/C=C(\C)CCCOC(=O)OC(=O)C2CC[C@@](C)(O2)C(=O)C(=O)C(=O)OC(=O)C(=O)N2CCCC[C@H]2C(=O)O[C@H](CCc2cccnc2)[C@H](C)CCC1=O (stereo partly specified) | 0.60
C=CCC1/C=C(\C)CCCOC(=O)OC(=O)C2CC[C@@H](O2)C(=O)C(=O)C(=O)OC(=O)C(=O)N2CCCC[C@H]2C(=O)O[C@H](CCc2cccnc2)[C@H](C)CCC1=O (stereo partly specified) | -0.70
C=CCC1/C=C(\C)CCOC(=O)OC(=O)C2CC[C@@H](O2)C(=O)C(=O)C(=O)OC(=O)C(=O)N2CCCC[C@H]2C(=O)O[C@H](CCc2cccnc2)[C@H](C)CCC1=O (stereo partly specified) | -0.40
C=CCC1/C=C(\C)CCOC(=O)OC(=O)C2CC[C@@](C)(O2)C(=O)C(=O)C(=O)OC(=O)C(=O)N2CCCC[C@H]2C(=O)O[C@H](CCc2cccnc2)[C@H](C)CCC1=O (stereo partly specified) | 0.90
C=CCC1/C=C(\C)CCOC(=O)OC(=O)CCC(=O)C(=O)OC(=O)C(=O)N2CCCC[C@H]2C(=O)O[C@H](CCc2cccnc2)[C@H](C)CCC1=O (stereo partly specified) | 0.74

Shift focus to the following entry.
Input: # get_value(readout= log10 Kd, system= Peptidyl-prolyl cis-trans isomerase FKBP1A (Homo sapiens, UniProt P62942)) for C=CCC1/C=C(\C)CCOC(=O)OC(=O)CCCCC(=O)C(=O)OC(=O)C(=O)N2CCCC[C@H]2C(=O)O[C@H](CCc2cccnc2)[C@H](C)CCC1=O (stereo partly specified)
Output: 0.65
